From: the supplement of paper PMC6555819

System: RARa homodimer (NR concentration 270 nM)
Test: PBM binding z-score (relative to random genomic background probes); higher = stronger binding; sequences stand for … in GC…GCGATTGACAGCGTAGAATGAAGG
Cut-off -0.03 on PBM binding z-score, inclusive. At or above means condition met; below means condition not met.

1) CGGACTGGGGCAAGGTTACCATAACGCACAGCCA: condition not met
2) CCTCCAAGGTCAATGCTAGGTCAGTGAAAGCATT: condition met
3) GCATATACGTAATACAAGGTGAAAGTCCGATTGT: condition met
4) ATTCGGAGGACAAAGGTCAGAGCTACGCCAGTGA: condition met
5) CCTACTTGGCCACGAAAGGTCATTGATTCAGTGA: condition met
6) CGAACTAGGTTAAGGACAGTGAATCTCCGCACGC: condition not met
7) GCTCGGAGGACAAGGTCAGAGCTTTGTCCGTAGA: condition not met
8) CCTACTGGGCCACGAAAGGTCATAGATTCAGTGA: condition met
9) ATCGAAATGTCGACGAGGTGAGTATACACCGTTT: condition met
10) TCTGCTACGTCAGTTGGTCAGCTAACGAGCTGCC: condition not met
11) TCTTGTCGATCAATAGAGGTTAAGAAAGTGCGCT: condition not met
12) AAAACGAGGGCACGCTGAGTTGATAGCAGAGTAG: condition not met

###

System: PPARg DBDmut:RXRa IVT, anti-PPARg (DBD mutation: PPARg1 K132A/R137A, NR concentration 270 nM, RXRa partner concentration 90 nM)
Test: PBM binding z-score (relative to random genomic background probes); higher = stronger binding; sequences stand for … in GC…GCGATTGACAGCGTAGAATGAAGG
Cut-off -0.2 on PBM binding z-score, inclusive. At or above means 1.0; below means 0.0.

1. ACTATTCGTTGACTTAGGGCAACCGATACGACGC: 1.0
2. ATCTCTAGGTAAAGATAGTTCAGTAAATGCAAAT: 1.0
3. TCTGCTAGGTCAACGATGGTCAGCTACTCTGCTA: 1.0
4. AGTCAAAGTTCGTCTAGGTAACGTAAGATATGCT: 1.0
5. TCTCGGAGGACACGAAGGTCAGAGCATTCCAGAG: 0.0
6. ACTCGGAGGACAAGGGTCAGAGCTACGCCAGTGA: 1.0
7. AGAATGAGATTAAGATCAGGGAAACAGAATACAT: 1.0
8. ATCTCTAGCTAACCAAGTTCAGTGAATGCCGAAC: 1.0
9. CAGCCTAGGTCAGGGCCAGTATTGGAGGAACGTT: 0.0
10. GGAACGAGGGCATTCGAGTTGATAGAATGGCGAT: 1.0
11. CGTCCAAGGTCGGCAGGTCAGTGAAAGCGACGTG: 0.0
12. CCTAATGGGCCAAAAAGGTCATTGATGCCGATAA: 0.0

###

Test system: LXRb homodimer (NR concentration 270 nM)
Assay: PBM binding z-score (relative to random genomic background probes); higher = stronger binding; sequences stand for … in GC…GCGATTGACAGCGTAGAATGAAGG
Cut-off 0.3 on PBM binding z-score, inclusive. At or above means 1; below means -1.

1) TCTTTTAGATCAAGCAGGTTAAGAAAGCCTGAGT: 1
2) TCGAGTAGGTTAGTCGGGGCCTTCAGCCAACATA: -1
3) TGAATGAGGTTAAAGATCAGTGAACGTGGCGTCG: -1
4) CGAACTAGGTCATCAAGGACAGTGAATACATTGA: -1
5) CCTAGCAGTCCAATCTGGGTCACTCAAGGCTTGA: -1
6) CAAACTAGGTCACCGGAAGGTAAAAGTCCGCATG: 1
7) ATCTCTAGGTAAAATTTCAGTGAATCCCGAGGAT: 1
8) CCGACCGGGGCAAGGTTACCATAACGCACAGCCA: -1
9) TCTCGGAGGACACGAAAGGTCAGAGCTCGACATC: -1
10) TCTAGTTGGTCAAAGGTCACACATTCGAAATGCG: 1
11) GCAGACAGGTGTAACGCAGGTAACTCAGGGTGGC: -1

###

Tested on: RARa:RXR (NR concentration 270 nM, RXRa partner concentration 90 nM)
Experiment: PBM binding z-score (relative to random genomic background probes); higher = stronger binding; sequences stand for … in GC…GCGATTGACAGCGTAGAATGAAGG
Cut-off 2 on PBM binding z-score, inclusive. At or above means Met; below means Not met.

1) GGAACGAGGGCAAGTTTATAGCAGAGTTTGATGG: Not met
2) ACCTCTAGGTAACCAAGTTCAGTGAATGCCGAAC: Not met
3) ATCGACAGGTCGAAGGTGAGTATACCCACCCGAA: Not met
4) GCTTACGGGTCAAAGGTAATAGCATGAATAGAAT: Met
5) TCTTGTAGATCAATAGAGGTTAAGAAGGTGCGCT: Not met
6) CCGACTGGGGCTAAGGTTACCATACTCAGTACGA: Not met

###

List of PBM binding z-score values.
Test system: THRa:RXRa (NR concentration 90 nM, RXRa partner concentration 90 nM)
Test: PBM binding z-score (relative to random genomic background probes); higher = stronger binding; sequences stand for … in GC…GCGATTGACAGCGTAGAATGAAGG
property-label: PBM binding z-score

1. TCTTGTAGAGCAATAGAGGTTAAGAAAGTGCGCT: 1.76
2. GCTAGCAGGCCATTTGGGTCACTCGATGACGGGC: 1.66
3. TAGCCTATGTCATGCGGGCCAGTATAGTGTCGGC: -0.313
4. CCTCGGAGGAAAGAAGGTCAGAGCTGTCCGCTTT: 1.93
5. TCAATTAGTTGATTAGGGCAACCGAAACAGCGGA: 0.541
6. TCTTGTAGATCAAAGGTTAAGATAGCCGAAGCCT: 1.38
7. ATACCCAGGTGATCGTGAGGTCGTTGATACTAAC: 3.14
8. CGTCAAAGTTCAAAGTAACGTAACAGAAAGCAGC: 1.72
9. ATCTCTAGGTAAGACTCAGTTCAGTGACGAACGC: 0.824
10. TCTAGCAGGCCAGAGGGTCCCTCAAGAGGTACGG: -0.666
11. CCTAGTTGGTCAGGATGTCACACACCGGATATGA: 0.0669
12. GATACAGGGTAAGCTAGAGGCCAGAGTATGGAAA: 0.219

###

Tested on: PXR homodimer (NR concentration 270 nM)
Assay: PBM binding z-score (relative to random genomic background probes); higher = stronger binding; sequences stand for … in GC…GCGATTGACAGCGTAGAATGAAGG
List of PBM binding z-score values.
property-label: PBM binding z-score

1) GCTATTAGTTGAAACGGCAACCGAATGATTCTCG: 0.122
2) AGCATGAGGTTACCAAAGATCAGGGAAACGCTTG: 0.241
3) CCTACTGGGCCACGAAAGGTCATTGCTTCAGTGA: 2.05
4) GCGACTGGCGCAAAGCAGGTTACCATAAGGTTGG: -0.486
5) TCTAGTTGGTCAAAGGTCATACACTCGAAATGCG: 3.03
6) GCTCGGAGGACGAGGTCAGAGCTTTGTCCGTAGA: 0.107
7) GCATATAGGTAATACAAGGTGAAAATCCGATTGT: 0.142
8) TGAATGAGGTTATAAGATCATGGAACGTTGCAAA: -0.359
9) CCTAGTTGGTCAGGAGGGCACACACCGGATATGA: 0.17
10) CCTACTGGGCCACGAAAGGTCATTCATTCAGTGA: 2.12
11) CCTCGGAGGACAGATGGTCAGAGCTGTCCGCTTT: -0.503
12) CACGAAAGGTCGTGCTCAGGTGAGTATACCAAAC: 0.154

###

Test system: VDR:RXRa (NR concentration 270 nM, RXRa partner concentration 90 nM)
Test: PBM binding z-score (relative to random genomic background probes); higher = stronger binding; sequences stand for … in GC…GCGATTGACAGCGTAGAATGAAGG
Binning rule for recorded PBM binding z-score: band A: < 0.0008; band B: ≥ 0.0008 and < 2; band C: ≥ 2

1. ACTATTAGTTGAGACGAGGGCGACCGATAGGTTG: band B
2. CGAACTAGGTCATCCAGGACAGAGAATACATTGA: band C
3. ACAGACAGGTGATGATGGTAACTCAGGCTATCAT: band A
4. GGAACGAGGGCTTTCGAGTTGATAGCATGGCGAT: band A
5. TCGAGTAGGGTACCAATGGGGCATTCAGCTTTCT: band A
6. AGAATGAGGTTATTAAGCTCAGGGAATTGCGGTC: band B
7. CCTACTGGGCCACGAATGGTCATTGATTCAGTGA: band A
8. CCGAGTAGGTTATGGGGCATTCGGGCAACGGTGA: band A
9. TCTCGGCGGACACGAAAGGTCAGAGCTCGACATC: band C
10. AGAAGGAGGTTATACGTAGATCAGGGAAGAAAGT: band B
11. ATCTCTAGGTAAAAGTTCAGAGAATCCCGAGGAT: band B
12. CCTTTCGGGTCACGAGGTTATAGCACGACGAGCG: band C
13. ATCTCTTGGTAAAAGTTCAGTGAATCCCGAGGAT: band B
14. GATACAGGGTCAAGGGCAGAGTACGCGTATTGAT: band C
15. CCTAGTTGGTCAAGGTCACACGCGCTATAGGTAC: band C
16. CCGAGTAGGTCATGGGGCATTCAGGCAACGGTGA: band C
17. CCTACTGGGCCATTCAGAGGCCATTGATCATATG: band A
18. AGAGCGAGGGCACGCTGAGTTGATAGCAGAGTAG: band B
19. TCTAGTTGGTCGAAGGTCACACACTCGAAATGCG: band C
20. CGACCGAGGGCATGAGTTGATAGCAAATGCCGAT: band B
21. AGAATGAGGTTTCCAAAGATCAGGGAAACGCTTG: band A
22. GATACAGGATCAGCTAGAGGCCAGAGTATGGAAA: band A
23. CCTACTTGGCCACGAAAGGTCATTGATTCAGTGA: band C
24. GTACCAAGGTGAATAGGTCGTTAATGAGTAGGCG: band B
25. TCTAGCAGGACAGAGGGTCACTCAAGAGGTACGG: band B
